These entries and their values trace back to patent US8133884B2.

Test system: HCV replicon
Test: HCV replicon assay (FRET or luciferase reporter)
Type: cell-based
Conditions: Hepatitis C virus, one of the methods described, class symbol
pEC50: −log10 of the molar value.
attribute-measured: pEC50

compound | subject-of-test | attribute-measured | recorded-measurement
COc1ccc2c(c1)C=C(c1c(C(=O)N3CCOCC3)cnn1C1CCOCC1)Cn1c-2c(C2CCCCC2)c2ccc(C(=O)NS(=O)(=O)C(C)C)cc21 | HCV replicon | pEC50 | 6.30 to 8.77
COc1ccc2c(c1)C=C(c1c(C(=O)N3CCOCC3)cnn1C1CCC1)Cn1c-2c(C2CCCCC2)c2ccc(C(=O)NS(=O)(=O)C(C)C)cc21 | HCV replicon | pEC50 | 6.30 to 8.77
COc1ccc2c(c1)C=C(c1c(C(=O)N3CC4CCC(C3)N4C)c(C)nn1C1CCC1)Cn1c-2c(C2CCCCC2)c2ccc(C(=O)NS(=O)(=O)C(C)C)cc21 | HCV replicon | pEC50 | 6.30 to 8.77
COc1ccc2c(c1)C=C(c1c(C(=O)N3C4COCC3COC4)cnn1-c1ccncc1C)Cn1c-2c(C2CCCCC2)c2ccc(C(=O)NS(=O)(=O)C(C)C)cc21 | HCV replicon | pEC50 | 6.30 to 8.77
COc1ccc2c(c1)C=C(c1c(C(=O)N3C4CCCCC3CCC4)cnn1C1CCC1)Cn1c-2c(C2CCCCC2)c2ccc(C(=O)NS(=O)(=O)C(C)C)cc21 | HCV replicon | pEC50 | 6.30 to 8.77
COc1ccc2c(c1)C=C(c1c(C(=O)N3C[C@@H](C)N(C)[C@@H](C)C3)cnn1C1CCOCC1)Cn1c-2c(C2CCCCC2)c2ccc(C(=O)NS(=O)(=O)CC(C)C)cc21 | HCV replicon | pEC50 | 6.30 to 8.77
COc1ccc2c(c1)C=C(c1ncn(C3CCC3)c1C(=O)N1C[C@@H](C)O[C@@H](C)C1)Cn1c-2c(C2CCCCC2)c2ccc(C(=O)NS(=O)(=O)C(C)C)cc21 | HCV replicon | pEC50 | 6.30 to 8.77
COc1ccc2c(c1)C=C(c1c(C(=O)N3C[C@@H]4C[C@H]3CN4)c(C)nn1C1CCC1)Cn1c-2c(C2CCCCC2)c2ccc(C(=O)NS(=O)(=O)C(C)C)cc21 | HCV replicon | pEC50 | 6.30 to 8.77
COC[C@@H]1CN(C(=O)c2c(C)nn(C3CCC3)c2C2=Cc3cc(OC)ccc3-c3c(C4CCCCC4)c4ccc(C(=O)NS(=O)(=O)C(C)C)cc4n3C2)CCO1 | HCV replicon | pEC50 | 6.30 to 8.77
COc1ccc2c(c1)C=C(c1c(C(=O)N3CCOCC3)cnn1-c1ccncc1C)Cn1c-2c(C2CCCCC2)c2ccc(C(=O)NS(=O)(=O)C(C)C)cc21 | HCV replicon | pEC50 | 6.30 to 8.77
COc1ccc2c(c1)C=C(c1c(C(=O)N3CCN(C)CC3)c(C)nn1C1CCC1)Cn1c-2c(C2CCCCC2)c2ccc(C(=O)NS(=O)(=O)C(C)C)cc21 | HCV replicon | pEC50 | 6.30 to 8.77
COc1ccc2c(c1)C=C(c1c(C(=O)N3CCOCC3)noc1C1CC1)Cn1c-2c(C2CCCCC2)c2ccc(C(=O)NS(=O)(=O)N(C)C)cc21 | HCV replicon | pEC50 | 6.30 to 8.77
COc1ccc2c(c1)C=C(c1c(C(=O)N3CCN(C)CC3)cnn1C1CCC1)Cn1c-2c(C2CCCCC2)c2ccc(C(=O)NS(=O)(=O)C(C)C)cc21 | HCV replicon | pEC50 | 6.30 to 8.77
COc1ccc2c(c1)C=C(c1c(C(=O)N3C[C@@H](C)O[C@@H](C)C3)cnn1-c1ccnc(C)c1)Cn1c-2c(C2CCCCC2)c2ccc(C(=O)NS(=O)(=O)C(C)C)cc21 | HCV replicon | pEC50 | 6.30 to 8.77
COc1ccc2c(c1)C=C(c1c(C(=O)N3C4CCC3CC(C)(O)C4)cnn1-c1ccncc1C)Cn1c-2c(C2CCCCC2)c2ccc(C(=O)NS(=O)(=O)C(C)C)cc21 (stereo not drawn) | HCV replicon | pEC50 | 6.30 to 8.77
COc1ccc2c(c1)C=C(c1c(C(=O)N3CCC(F)(F)CC3)cnn1C1CCC1)Cn1c-2c(C2CCCCC2)c2ccc(C(=O)NS(=O)(=O)C(C)C)cc21 | HCV replicon | pEC50 | 6.30 to 8.77
COc1ccc2c(c1)C=C(c1c(C(=O)N3CC4CCC(C3)N4C)cnn1C1CCOCC1)Cn1c-2c(C2CCCCC2)c2ccc(C(=O)NS(=O)(=O)CC(C)C)cc21 | HCV replicon | pEC50 | 6.30 to 8.77
COc1ccc2c(c1)C=C(c1ncn(C3CC3)c1C(=O)N1CCOCC1)Cn1c-2c(C2CCCCC2)c2ccc(C(=O)NS(=O)(=O)C(C)C)cc21 | HCV replicon | pEC50 | 6.30 to 8.77
COc1ccc2c(c1)C=C(c1c(C(=O)N3C[C@@H](C)O[C@@H](C)C3)cnn1-c1nc3ccccc3[nH]1)Cn1c-2c(C2CCCCC2)c2ccc(C(=O)NS(=O)(=O)C(C)C)cc21 | HCV replicon | pEC50 | 6.30 to 8.77
COc1ccc2c(c1)C=C(c1c(C(=O)N3C4CCC3CN(C)C4)cnn1C1CCOCC1)Cn1c-2c(C2CCCCC2)c2ccc(C(=O)NS(=O)(=O)CC(C)C)cc21 | HCV replicon | pEC50 | 6.30 to 8.77
COc1ccc2c(c1)C=C(c1c(C(=O)N3C[C@@H](C)O[C@@H](C)C3)cnn1C1CCC1)Cn1c-2c(C2CCCCC2)c2ccc(C(=O)NS(=O)(=O)C(C)C)cc21 | HCV replicon | pEC50 | 6.30 to 8.77
COc1ccc2c(c1)C=C(c1c(C(=O)N3CCOCC3)cnn1C1CCOCC1)Cn1c-2c(C2CCCCC2)c2ccc(C(=O)NS(=O)(=O)CC(C)C)cc21 | HCV replicon | pEC50 | 6.30 to 8.77
COc1ccc2c(c1)C=C(c1c(C(=O)N3C[C@@H](C)O[C@@H](C)C3)cnn1C1CCOCC1)Cn1c-2c(C2CCCCC2)c2ccc(C(=O)NS(=O)(=O)C(C)C)cc21 | HCV replicon | pEC50 | 6.30 to 8.77
COc1ccc2c(c1)C=C(c1c(C(=O)N3CCN4CCC[C@H]4C3)cnn1C1CCC1)Cn1c-2c(C2CCCCC2)c2ccc(C(=O)NS(=O)(=O)C(C)C)cc21 | HCV replicon | pEC50 | 6.30 to 8.77
